Record form. Attribute: ΔTm. Fill in for each entry.
The reply should contain only the number, in °C.

# value lookup — system Growth factor receptor-bound protein 7 (Homo sapiens), readout ΔTm, item COC(=O)C(=O)C(C(=O)C(=O)Nc1cc(C)ccc1C)c1nc2ccccc2nc1O (centres undefined)
0.6

Form: Entry = COC(=O)C(=O)C(C(=O)C(=O)Nc1ccccc1C(C)=O)c1nc2ccc(C(=O)c3ccccc3)cc2nc1O (centres undefined) | System = Growth factor receptor-bound protein 7 (Homo sapiens) | ΔTm = ____
0.55

Give the reported ΔTm for COC(=O)C(=O)C(C(=O)C(=O)Nc1cccc(C(C)=O)c1)c1nc2ccc([N+](=O)[O-])cc2nc1O (centres undefined) (system: Growth factor receptor-bound protein 7 (Homo sapiens)).
0.55

Look up ΔTm with Growth factor receptor-bound protein 7 (Homo sapiens) for this molecule: COC(=O)C(=O)C(C(=O)C(=O)Nc1cc([N+](=O)[O-])ccc1C#N)c1nc2ccccc2nc1O (centres undefined)
0.95

====

# tgt: Growth factor receptor-bound protein 7 (Homo sapiens) (UniProt Q14451)
# Sequence (Q14451 whole entry): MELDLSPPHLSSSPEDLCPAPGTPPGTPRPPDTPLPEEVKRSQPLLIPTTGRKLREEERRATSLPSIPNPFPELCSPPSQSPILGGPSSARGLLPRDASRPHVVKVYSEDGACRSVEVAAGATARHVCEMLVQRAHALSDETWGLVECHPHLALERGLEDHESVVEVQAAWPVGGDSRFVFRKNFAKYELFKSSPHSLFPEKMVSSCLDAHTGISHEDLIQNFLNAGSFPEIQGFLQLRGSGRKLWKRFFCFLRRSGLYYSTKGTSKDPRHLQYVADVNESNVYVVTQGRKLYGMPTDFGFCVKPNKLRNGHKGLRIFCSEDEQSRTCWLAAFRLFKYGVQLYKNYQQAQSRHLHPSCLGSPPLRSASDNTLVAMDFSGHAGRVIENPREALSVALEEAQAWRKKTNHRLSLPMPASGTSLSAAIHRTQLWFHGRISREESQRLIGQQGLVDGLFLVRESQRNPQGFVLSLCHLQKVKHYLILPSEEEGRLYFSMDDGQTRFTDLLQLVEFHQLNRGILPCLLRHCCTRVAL
Please use t for ΔTm under 0.5 °C and f for everything else, ties included.

Hi there! Is ΔTm for COC(=O)C(=O)C(C(=O)C(=O)Nc1cc([N+](=O)[O-])ccc1C#N)c1nc2ccccc2nc1O (stereo unspecified) below 0.5 °C, do you know?
f

In plain terms, does COC(=O)C(=O)C(C(=O)C(=O)Nc1ccc(C(N)=O)cc1)c1nc2ccc([N+](=O)[O-])cc2nc1O (stereo unspecified) come in under 0.5 °C for ΔTm?
t

Determine if C[C@@H](O)[C@@H]1NC(=O)[C@H](CC(N)=O)NC(=O)[C@H](CC(=O)O)NC(=O)[C@H](Cc2ccc(O)cc2)NC(=O)CNC(=O)[C@@H](CCC(=O)O)NC(=O)[C@H](Cc2ccccc2)NC(=O)[C@H](Cc2c[nH]c3ccccc23)NC(=O)CSC[C@@H](C(=O)O)NC(=O)[C@@H]2CCCN2C(=O)[C@H](Cc2ccccc2)NC1=O shows ΔTm strictly lower than 0.5 °C.
f

Please determine if COC(=O)C(=O)C(C(=O)C(=O)Nc1ccccc1C(C)=O)c1nc2ccc(C(=O)c3ccccc3)cc2nc1O (stereo unspecified) is below 0.5 °C in terms of ΔTm.
t

I'd appreciate it if you could check whether COC(=O)C(=O)C(C(=O)C(=O)Nc1cc(C)ccc1C)c1nc2ccccc2nc1O (stereo unspecified) has ΔTm smaller than 0.5 °C.
f

Dear reviewer, please state whether COC(=O)C(=O)C(C(=O)C(=O)Nc1cccc(C(C)=O)c1)c1nc2ccc([N+](=O)[O-])cc2nc1O (stereo unspecified) has ΔTm strictly beneath 0.5 °C.
t

====

# tgt: Growth factor receptor-bound protein 7 (Homo sapiens) (UniProt Q14451)
I'd be grateful if you could share measured ΔTm for these entries.
Form entry: value (°C) — number only.

ΔTm for C[C@@H](O)[C@@H]1NC(=O)[C@H](CC(N)=O)NC(=O)[C@H](CC(=O)O)NC(=O)[C@H](Cc2ccc(O)cc2)NC(=O)CNC(=O)[C@@H](CCC(=O)O)NC(=O)[C@H](Cc2ccccc2)NC(=O)[C@H](Cc2c[nH]c3ccccc23)NC(=O)CSC[C@@H](C(=O)O)NC(=O)[C@@H]2CCCN2C(=O)[C@H](Cc2ccccc2)NC1=O ?
1.85

Return reported ΔTm; argument: COC(=O)C(=O)C(C(=O)C(=O)Nc1ccc(C(N)=O)cc1)c1nc2ccc([N+](=O)[O-])cc2nc1O (configuration not stated)
0.85
